Test system: NCI/ADR-RES
test.summary: NCI tumour cell line growth inhibition, 48 h
Activity calls are given as the source filed them. Cut-off read from the data, not from the text of the source: active = GI50 up to about 1.1 µM and inactive = higher.
property.label: GI50

Use these answered entries as a reference point.
CCCNC(=O)NNC(=O)c1c[nH]c2nc(C)ccc2c1=O : > 100 µM (inactive)
CC1c2cc(c3c(c2O)CN([C@@H](C)C2CCCCC2)CO3)C(C)c2cc(c3c(c2O)CN([C@@H](C)C2CCCCC2)CO3)C(C)c2cc(c3c(c2O)CN([C@@H](C)C2CCCCC2)CO3)C(C)c2cc1c1c(c2O)CN([C@@H](C)C2CCCCC2)CO1 (some centres not stated) : 1.27 µM (inactive)
CP(=O)(O)C(N)c1ccccc1 (configuration not stated) : > 100 µM (inactive)
CN1C(=O)[C@@H]2[C@@H]3c4ccccc4N(S(=O)(=O)C(F)(F)F)[C@@H]3c3[nH]c4ccccc4c3[C@@H]2C1=O : 26.3 µM (inactive)

Field request: GI50 | item: "C=C[C@@](C)(/C=C/c1ccc(O)cc1)CCC=C(C)C"
16.2 µM (inactive)

Given the molecule "O=[N+]([O-])c1ccc(N/N=C2/CC3=C2CCCCCCCCCC3)c([N+](=O)[O-])c1" , what is its reported GI50?
> 100 µM (inactive)

Could you share which GI50 value was measured for CCOP(=O)(OCC)C(Nc1ccc(C(=O)O)cc1)c1ccc(C(Nc2ccc(C(=O)O)cc2)P(=O)(OCC)OCC)cc1 (configuration not stated) ?
> 100 µM (inactive)

Sample "CS(=O)(=O)OCCCNCCCOS(C)(=O)=O" — what was its GI50?
1600 µM (inactive)

Look up GI50 for this molecule: "C/C(=N\Nc1nc2ccccc2s1)c1cc2ccccc2cn1"
3.25 µM (inactive)

Quick check: GI50 of C/C(=C\[Si](C)(C)c1ccco1)C(C)(O)[C@H](C)O (some centres not stated) ?
43.7 µM (inactive)

What does the data say about its GI50? Entry: "CC(=NNC(=S)Nc1ccccc1C)c1cccc(C(C)=NNC(=S)Nc2ccccc2C)n1"
18.6 µM (inactive)

Using the record for C=CC1=C(C)c2cc3[nH]c(c4c5nc(cc6[nH]c(cc1n2)c(C)c6CC)C=C5C(=O)C4C(=O)OC)C(CCC(=O)OC/C=C(\C)CCCC(C)CCCC(C)CCCC(C)C)C3C.C=CC1=C(C)c2cc3[nH]c(c4c5nc(cc6[nH]c(cc1n2)c(C=O)c6CC)C=C5C(=O)C4C(=O)OC)C(CCC(=O)OC/C=C(\C)CCCC(C)CCCC(C)CCCC(C)C)C3C (configuration not stated) , report its GI50.
> 100 µM (inactive)

Tell me the measured GI50 of "Oc1nc(-c2ccc3ccccc3c2)nc2ccccc12" , please.
20 µM (inactive)

Entry "Cc1cc2nc3c(C#N)c4c(c(Nc5ccc(Cl)cc5)n3c2cc1C)CCC4" : reported GI50 = ?
22.6 µM (inactive)

Any idea what its GI50 is? The molecule is "CNC(=S)N/N=C(\C)c1nc2cccnc2[nH]1"
15.3 µM (inactive)

Dear colleague, I am looking for the recorded GI50 of the following molecule: CCOC(=O)C(C/C=C/CO)N(C)C(=O)OC(C)(C)C (configuration not stated)
> 100 µM (inactive)

Which GI50 is reported for this molecule? "C#C[C@]1(O)CC[C@H]2[C@@H]3CCC4=C/C(=N/OCCN(C)C)CC[C@]4(C)[C@H]3CC[C@@]21C"
41.7 µM (inactive)

---

System: T47D
test.summary: NCI tumour cell line growth inhibition, 48 h
Calls of active or inactive are those of the source. Rule as the data show it: active = GI50 up to about 1.1 µM and inactive = higher.
The reply should be one of these categories: true (active), false (inactive)

CCOc1ccc(N/C(=C(/C(Cl)=C(/Cl)Nc2ccccc2)[N+](=O)[O-])n2nnc3ccccc32)cc1 : false

I'd appreciate the recorded outcome for "Cc1nnc2nc(-c3ccc(Cl)cc3Cl)cc(-c3ccc(Cl)cc3)n12" from this test.
false

Short answer needed: outcome of this test for "CC1=CC2(C)C=C[C@@H]1C(=O)[C@@]1(C)CC[C@@](O)(C(C)C)[C@H]1CC2" ?
false

Record request — test call for "O=C1C(Cl)=C(N2CCN(CCOCCO)CC2)C(=O)c2c(O)ccc(O)c21"
true

---

Test system: IGROV-1
test.summary: NCI tumour cell line growth inhibition, 48 h
Calls of active or inactive are those of the source. Cut-off read from the data, not from the text of the source: active = GI50 up to about 1.1 µM and inactive = higher.
Entries and their GI50

CC(=O)N1N=C(c2cc(C)ccc2O)CC1c1cccc(Cl)c1 (stereo not drawn) : 2.6 µM (inactive)
CC1=CC2(C)C=C[C@@H]1C(=O)[C@@]1(C)CC[C@@](O)(C(C)C)[C@H]1CC2 : 26.2 µM (inactive)
CC(C)=CC(=O)N1CCN(C(=O)C=C(C)C)CC1 : > 100 µM (inactive)

For "COc1cc(OC)cc(Oc2nc3ccc(C(F)(F)F)cc3nc2-c2ccccc2)c1" , what is its reported GI50?
> 100 µM (inactive)

Item under review: O=C1C2C3CC(C4C5C=CC(C5)C34)C2C2C3CC(C12)C1C2C=CC(C2)C31 (stereo not drawn) . Reported GI50?
> 100 µM (inactive)

What GI50 value was documented for this molecule, "COc1cc2nc(-c3cccs3)oc(=O)c2cc1OC" ?
> 100 µM (inactive)

What GI50 value was documented for this molecule, CC(C)(C)c1ccc(C(C)(C)C)c(N2C(=O)C3ON=C(c4ccc([N+](=O)[O-])cc4)C3C2=O)c1 (stereo not drawn) ?
4.5 µM (inactive)

Consider the molecule "Clc1ccc(/C=N/C23CC4CC(CC(C4)C2)C3)c(Cl)c1" and give its measured GI50.
> 10 µM (inactive)

---

Tested on: SR
test.summary: NCI tumour cell line growth inhibition, 48 h
The source made the active and inactive calls. Rule as the data show it: active = GI50 up to about 1.1 µM and inactive = higher.
Just give me one of these, please: active, inactive

// below: answered compounds
O=C1C(=C2CCCC2)CCC1CN1CCCCC1 (stereo not drawn) : inactive
Cn1c(=O)c2nc3c(=O)n(C)c(=O)n(CC(N)=O)c3nc2n(C)c1=O : inactive
CC1c2cc(c3c(c2O)CN([C@@H](C)C2CCCCC2)CO3)C(C)c2cc(c3c(c2O)CN([C@@H](C)C2CCCCC2)CO3)C(C)c2cc(c3c(c2O)CN([C@@H](C)C2CCCCC2)CO3)C(C)c2cc1c1c(c2O)CN([C@@H](C)C2CCCCC2)CO1 (stereo partly drawn) : active
COc1ccc(/C=C/C(=N/NC(=O)N/N=C(/C=C/c2ccc(OC)cc2)C(C)(C)CN2CCCCC2)C(C)(C)CN2CCCCC2)cc1 : active
COc1ccc2c3c1O[C@H]1[C@@H](O)CC[C@@]4(O)[C@@H](C2)N(C)CC[C@]314 : inactive

Which outcome did this test record for the compound CC(CN1CCN(CC(C)Nc2ccnc3cc(Cl)ccc23)CC1)Nc1ccnc2cc(Cl)ccc12 (stereo not drawn) ?
inactive

Please share the test call associated with "N=C(N)NS(=O)(=O)c1ccc(NCc2c3ccccc3nc3ccccc23)cc1" .
active

I would be grateful if you could indicate the recorded call for "Nc1c2c(nc3cc(F)c(F)cc13)CCC2" .
inactive

---

Tested on: Hs-578T
test.summary: NCI tumour cell line growth inhibition, 48 h
Activity calls are given as the source filed them. No stated cut-off is given here; in the data, active = GI50 up to about 1.1 µM and inactive = higher.
Result category, one only: YES for active, NO for inactive

C#C[C@]1(O)CC[C@H]2[C@@H]3CCC4=C/C(=N/OCCN(C)C)CC[C@]4(C)[C@H]3CC[C@@]21C : NO
CCOC(=O)C(NC(C)=O)(Nc1ccc(S(N)(=O)=O)cc1)C(F)(F)F (stereo not given) : NO
COc1cc(C2C3=C(N=C4SC(C(C)=O)=C(C)N42)c2ccccc2CC3)cc(OC)c1OC (stereo not given) : NO
Oc1ccc(C(=C(Br)c2ccccc2)c2ccc(O)cc2)cc1 : NO
OC1(C(O)(c2ccc(-c3ccccc3)cc2)c2ccc(-c3ccccc3)cc2)CCCCC1 : NO

For "CN(C)c1cccc(/C=C(\C#N)c2ccccc2)c1" , what call appears in the results of this test?
YES

Per the assay record, what outcome was assigned to CC(C)(CO)N1C(=O)c2ccccc2C1(O)c1ccc(Cl)cc1 (stereo not given) ?
NO

Recorded call for CC(C)CC1[C@@H](OCc2ccccc2)COS(=O)(=O)N1Cc1ccccc1 (stereo not given in full) ?
NO

Dear all, I need the recorded test outcome for "CCOC(=O)c1c(-c2cccc(Cl)c2)c(C(=O)OC)c(C)c2sc(C=O)nc12" , thank you.
NO

---

System: SK-MEL-2
test.summary: NCI tumour cell line growth inhibition, 48 h
The source made the active and inactive calls. No stated cut-off is given here; in the data, active = GI50 up to about 1.1 µM and inactive = higher.
property.label: GI50

COc1ccc(N(c2ccc(C#N)cc2)c2ccc(C#N)cc2)cc1 : > 100 µM (inactive)
CCOC(=O)/C(SC#N)=C(/N)N1CCCC1 : > 100 µM (inactive)
OC1C2CN3CCN(C2)CC1(c1ccccc1)C3 (stereo not given) : > 100 µM (inactive)
C/C=C(/C)C(=O)OC1CC(C)[C@H]2CC(=O)C(C)=C2CC1C(C)(C)OC(C)=O (stereo not given in full) : 3.95 µM (inactive)
N#Cc1nnn(-c2ccc(Br)cc2)c1O : > 100 µM (inactive)

I have this molecule here, "Cc1ccc2c(c1)C(=O)C1(C2)Cc2ccc(C)cc2C1=O" , and I need its recorded GI50.
87.3 µM (inactive)

Request the reported GI50 associated with "CCCNC(=O)NNC(=O)c1c[nH]c2nc(C)ccc2c1=O"
> 100 µM (inactive)

Endpoint output: GI50 of "C/C(=N/NC(=S)Nc1ccc([N+](=O)[O-])cc1)c1cccc(/C(C)=N\NC(=S)Nc2ccc([N+](=O)[O-])cc2)n1" . Value?
3.99 µM (inactive)

Given the molecule "O=C1CN=C(C[N+](=O)[O-])c2ccccc21" , what is its reported GI50?
> 100 µM (inactive)

Any idea what GI50 was measured for O=C1CC2(CCC(O)(c3cccc4ccccc34)C(C(=O)c3cccc4ccccc34)C2)C(=O)c2ccccc2N1 (stereo not given) ?
> 100 µM (inactive)
